- System name: T1, recombinant purified FRα (ECL assay calibrator) (human, UniProt P15328 25-234)
- T1 construct: Calibrator of the ECL sandwich assays; also called FRα calibrator; FRα standard
- T1 sequence (P15328 25-234 limits assumed): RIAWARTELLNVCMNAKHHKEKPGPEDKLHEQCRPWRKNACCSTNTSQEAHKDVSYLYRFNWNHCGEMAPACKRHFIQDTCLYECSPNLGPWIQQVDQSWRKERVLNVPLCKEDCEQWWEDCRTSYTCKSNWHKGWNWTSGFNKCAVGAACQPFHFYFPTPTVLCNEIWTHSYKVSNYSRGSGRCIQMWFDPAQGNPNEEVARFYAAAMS
- Assay: ECL sandwich, FRα calibrator; capture 6A2.G7; binder = detection Ab
Endpoint name: Specific signal at 500 pg/mL
Answers are plain numbers.

{"Binder": "Monoclonal antibody 1C6.E12.G8 (antibody, mouse IgG1, V domains shown, Murine IgG1 kappa from hybridoma; also called ATCC PTA-123091) VH: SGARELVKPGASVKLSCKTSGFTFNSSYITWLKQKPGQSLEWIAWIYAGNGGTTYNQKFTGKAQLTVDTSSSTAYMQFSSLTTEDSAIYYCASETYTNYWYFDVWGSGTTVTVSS VL: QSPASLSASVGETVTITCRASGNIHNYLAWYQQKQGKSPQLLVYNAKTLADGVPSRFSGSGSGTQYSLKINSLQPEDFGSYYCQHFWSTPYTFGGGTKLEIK", "Specific signal at 500 pg/mL": 967}
{"Binder": "Monoclonal antibody 24H8.D3 (antibody, mouse IgG1, V domains shown, Biotin-conjugated when used as capture antibody in the ECL assay; also called ATCC PTA-123090) VH: QVQLKESGPGLVAPSQSLSITCTVSGFSLTSYGVSWVRQPPGKGLEWLGVIWGDGSTNYHSTLISRLSISKDNSKSQVFLKLNSLQTDDTATYYCAKPHPAATGAMDYWGQGTSVTVSS VL: DIQMTQTTSSLSASLGDRVTISCRASQDISNHLNWYQQKPDGTIKLLIYYTSKLHSGVPSRFSGSGSGTDYSLTISNLEQEDIATYFCQQGNTLWTFGGGTKLEIK", "Specific signal at 500 pg/mL": 1930}

[in] Return reported Specific signal at 500 pg/mL; argument: Monoclonal antibody 1D2.D8.G10 (antibody, mouse IgG1, V domains shown, Murine IgG1 kappa from hybridoma; also called 1D2.D8.G0; ATCC PTA-123098) VH: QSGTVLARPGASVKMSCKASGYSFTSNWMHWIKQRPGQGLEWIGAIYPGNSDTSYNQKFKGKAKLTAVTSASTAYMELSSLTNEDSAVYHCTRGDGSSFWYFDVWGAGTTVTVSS VL: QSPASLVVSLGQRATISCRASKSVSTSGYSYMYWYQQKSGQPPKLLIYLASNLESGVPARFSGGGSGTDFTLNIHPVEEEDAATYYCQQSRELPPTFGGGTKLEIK
[out] 1690
